system: NCI-H23; assay: Antiproliferative activity against human NCI-H23 cells assessed as cell growth at 10 uM; format: functional; conditions: read-out: Activity
Decision: growth at 10 µM >= 90% yields label 1, all other cases yield label 0.

Solved entries:
| smiles-structure | label-class |
| --- | --- |
| CCc1nc2ccc3c(c2[nH]1)C(=O)c1ccccc1C3=O | label 0 |
| O=C1c2ccccc2C(=O)c2c1ccc1nc(-c3ccc(Br)cc3)[nH]c21 | label 1 |

Test whether the compound CC1(C)Nc2ccc3c(c2N1)C(=O)c1ccccc1C3=O records growth at 10 µM of 90% or higher.
label 0

Test whether the compound COc1cc(-c2nc3ccc4c(c3[nH]2)C(=O)c2ccccc2C4=O)ccc1O records growth at 10 µM of 90% or higher.
label 1

Test whether the compound O=C1c2ccccc2C(=O)c2c1ccc1nsnc21 records growth at 10 µM of 90% or higher.
label 0
